src = patent US20230318003A1

- TEST_DETAILS: Solubility testing, saturated solutions in milli-Q water at ambient temperature
- CONDITIONS_USED: thermodynamic from solid, Test 1, milli-Q water
VALUE_TYPE: solubility (mM)

1 = C[N+](C)(C)CCCN1C(=O)c2cc(Br)c3c4c(cc(Br)c(c24)C1=O)C(=O)N(CCC[N+](C)(C)C)C3=O
2 = C[N+](C)(C)CCCN1C(=O)c2ccc3c4c(ccc(c24)C1=O)C(=O)N(CCC[N+](C)(C)C)C3=O
query: Could you kindly indicate whether 1 or 2 has the higher solubility value? Answer by quoting the chosen item's label.
result: 2

---

- TEST_DETAILS: Solubility testing, saturated solutions in milli-Q water at ambient temperature
- CONDITIONS_USED: thermodynamic from solid, Test 2, milli-Q water
VALUE_TYPE: solubility (mM)

1 = C[N+](C)(C)CCCN1C(=O)c2cc(Br)c3c4c(cc(Br)c(c24)C1=O)C(=O)N(CCC[N+](C)(C)C)C3=O [Compound 3]
2 = C[N+](C)(C)CCCN1C(=O)c2ccc3c4c(ccc(c24)C1=O)C(=O)N(CCC[N+](C)(C)C)C3=O [Compound 2]
query: Which gives the smaller solubility number: 1 or 2 ? Answer by quoting the chosen item's label.
result: 1
(1: 151 mM, 2: 689 mM)
